Data credit: patent US5177082A

- procedure-summary: in vivo
- particulars: rat, iv, phase rate constant β, iv 375 μCi/kg, rat blood
property-measured: k el (s⁻¹)

[[record]]
compound = "C/C=C1\\[C@H]2C=C(C)C[C@]1(N)c1ccc(=O)[nH]c1C2 [3H-Huperzine A]"
measured = "9.67e-05"


* * *

// values below are reported pEC50
- System: In Vitro Rat Nerve/Diaphragm Muscle Contraction
- procedure-summary: In vitro phrenic nerve/diaphragm preparations of rats, enhancement of muscle contraction
- particulars: Rattus norvegicus, read-out: Enhancement of Muscle Contraction Amplitude, 50% Concentration
pEC50: −log10 of the molar value.
property-measured: pEC50

[[record]]
compound = "CC1=C[C@H]2Cc3[nH]c(=O)ccc3[C@]3(C1)NCCC[C@H]23"
measured = 5.32

[[record]]
compound = "CN(C)C(=O)Oc1cccc([N+](C)(C)C)c1 [Neostigmine, reference compound]"
measured = 6.57

